- Assay overview: Inhibition of TNF-alpha production in LPS stimulated human PBMC
- Type: functional
Measured property: IC50 (nM)

> print(dat)
                                   compound  measured.property  endpoint.unit  value
1  Nc1cccc2c1C(=O)N(C1CCC(=O)NC1=O)C2=O (configuration not stated) [POMALIDOMIDE]               IC50             nM    230
2  Nc1cccc2c1C(=O)N(C1(F)CCC(=O)NC1=O)C2=O (configuration not stated)               IC50             nM    230
